Source of measurements: PubChem BioAssay (NCI)

Tested on: EKVX NSCLC
experiment: NCI-60 one-dose screen, 48 h
condition.label: 10 µM unless noted
This is part of a sample that, as a whole, favours compounds with a hit. Of some 83,000 tested, about 20% had one in any assay. Active and inactive are the calls of the source. The calls were made as follows: active = growth percent below 10; inactive = the rest.
Allowed answers: active, inactive

Before answering, review these 5 worked examples.
Q: Please indicate how the test categorized CN(C)CCNC(=O)c1ccc(-c2nc3ccc4[nH]ncc4c3c3c2C2CCC3C2)cc1 (stereo not given) .
A: inactive

Q: Which outcome was assigned to C=CCOC(=O)Nc1cccn([C@H](Cc2ccccc2)C(=O)NCCC(C)C)c1=O in this test?
A: inactive

Q: Which outcome was assigned to COC(=O)/C=C1/SC(=Nc2cccc(OC)c2)N(CCc2c[nH]c3ccc(O)cc23)C1=O in this test?
A: inactive

Q: Answer briefly: the call reported for C#CCOc1cccc(Nc2ncnc3ccc(NC(=O)C=C)cc23)c1 in this assay.
A: inactive

Q: Give the logged outcome of this assay for the following molecule: COC(=O)c1c2c(c(C)[n+]([O-])c1C)C(=O)C(NCc1cccc(OC)c1)=CC2=O
A: inactive

Continuing:
Q: Given Cn1ccnc1C(=O)/C=C/c1ccc(C(=O)Nc2ccc(Cl)cc2)cc1 , state the outcome it received in this test.
A: active

Q: # lookup: test call for CCCCNC(=O)Oc1ccc(/C(=C(/C)Cc2ccc(OC)cc2)c2ccc(OCCN(CC)CC)cc2)cc1
A: inactive

###

Provide the reported growth of each item.
Tested on: K-562 leukemia
experiment: NCI-60 one-dose screen, 48 h (100 = growth as untreated, 0 = no growth, -100 = all killed)
condition.label: 10 µM unless noted
About 83,000 compounds went through this panel and 20% of them were active in at least one assay; those are over-represented in the sample as a whole.
One number for each entry, in %.

Q: Query growth for CCOC(=O)C/C(=N\Nc1cc(=O)[nH]c2ccc(Br)cc12)C(=O)OCC
A: 24.2

Q: For the compound O=S(=O)(Nc1ccc(Cl)c(C(F)(F)F)c1)c1ccc(-c2cnc(C3CC3)o2)cc1 , give its measured growth value.
A: 5.12

Q: Quickly give me recorded growth for O=C(Cn1cc(CSc2nc3ccccc3o2)nn1)Nc1ccc(F)cc1F
A: 107

Q: Identify measured growth corresponding to COc1cc2oc(-c3cccc(NC(=O)c4ccccc4)c3)cc(=O)c2c(OC)c1OC
A: 43.1

Q: Using the record for CCN1C(=S)N(c2ccccc2)C2NC(=S)N(/N=C/C=C/c3ccccc3OC)C21 (centres undefined) , state its measured growth.
A: 8.73

Record growth for all entries; do not skip any.
1. O=C1/C(=C/c2ccccc2Br)COc2ccc(O)cc21
2. Cc1ccc(C[P+](c2ccccc2)(c2ccccc2)c2ccccc2)cc1
3. COc1ccc2cc1Oc1ccc(cc1)C[C@H]1c3c(cc4c(c3Oc3cc5c(cc3OC)CCN(C)[C@@H]5C2)OCO4)CCN1C
4. CCCCNC(=O)Oc1ccc(/C(=C(/C)Cc2ccc(OC)cc2)c2ccc(OCCN(CC)CC)cc2)cc1
5. O=C(N/N=C/c1c(Cl)cccc1Cl)c1cccnc1Nc1cccc(C(F)(F)F)c1
6. CC(C)COc1nc2c(c(=O)n(C)c(=O)n2C)n1C
7. COc1cc(C2c3cc(OC(C)=O)c(OC)cc3CC3C(=O)OCC32)ccc1OC(C)=O (centres undefined)

A:
[11.9, 2.1, -2.72, 3.84, 73.9, 98, 115]

Hi! Can you tell me growth for each of these compounds?
1. COc1cc(OCc2cccc(Br)c2C)cc(OC)c1C=O
2. Nc1cc(C(=O)NC[C@H]2CN(c3ccc(N4CCC(C(=O)O)CC4)cc3)C(=O)O2)ccc1Cl
3. CCCCCCCCCCC(CN(CC)CC)C(O)c1ccccc1 (centres undefined)
4. CCOC(=O)C(=O)C(C(=O)OCC)c1ccccc1 (centres undefined)
5. CCCNc1nc2ccccc2c2c1S(=O)(=O)c1ccc(Cl)cc1C2=O

A:
[67, 92.1, -21.2, 86.7, 8.48]

Below are 4 compounds. Give each one its growth.
1. COc1cc(-c2nc3sccn3c2-c2ccnc(NCCNS(=O)(=O)c3ccccc3)n2)ccc1F
2. Cc1nc2sc(C(=O)Nc3cccc4ccccc34)c(N)c2cc1C(O)c1ccccc1 (centres undefined)
3. Oc1c(Br)cc(Br)c2ccc(Cn3cc(-c4ccc(C(F)(F)F)cc4)nn3)nc12
4. O=c1[nH]c(-c2ccccc2)nc2sc3cc(O)ccc3c12

A:
1. 28.3
2. 4.79
3. 6.39
4. 25.9

###

Test system: UACC-257 melanoma
experiment: NCI-60 one-dose screen, 48 h (100 = growth as untreated, 0 = no growth, -100 = all killed)
condition.label: 10 µM unless noted
This is part of a sample that, as a whole, favours compounds with a hit. Of some 83,000 tested, about 20% had one in any assay. Activity calls are given as the source filed them. Rule for the calls: active = growth percent below 10; inactive = the rest.
What growth was measured for each of the following?

Study these solved cases before continuing.
Q: For N#Cc1c(-c2ccccc2)cc(-c2ccc(Nc3nc(Nc4ccc(Cl)cc4)nc(Nc4ccc(Cl)cc4)n3)cc2)nc1N , write its growth.
A: -12.1% (active)

Q: Quickly give me recorded growth for C=CCc1c(O)c(C(=O)/C=C/c2ccccc2)c(OC)c2ccoc12
A: 40.6% (inactive)

Q: Consider the compound Cc1ccc(Nn2c(SCC(=O)Nc3nc(-c4ccccc4)cs3)nc(C)c2C)cc1 . State its measured growth.
A: 54.1% (inactive)

Each compound below has a recorded value; state its growth.
1. Cn1ccnc1C(=O)/C=C/c1ccc(C(=O)Nc2ccccc2O)cc1
2. CCOc1nc(-c2ccccc2)cc2c(O)c(C(=O)N/N=C/c3ccccc3)[nH]c(=O)c12
3. O=C1/C(=C/c2cccc(F)c2)CN(C(=O)C(Cl)Cl)C/C1=C\c1cccc(F)c1
4. CC(=O)/C(=C\c1c(-c2ccccc2)[nH]c2ccccc12)S(C)(=O)=O
5. N=C(N)c1ccc(-c2ccc(-c3ccc(Cl)cc3Cl)s2)cc1

A:
1. 48.6% (inactive)
2. 101% (inactive)
3. -42.4% (active)
4. 59.8% (inactive)
5. 88% (inactive)

###

System: PC-3 prostate
experiment: NCI-60 one-dose screen, 48 h (100 = growth as untreated, 0 = no growth, -100 = all killed)
condition.label: 10 µM unless noted
This is part of a sample that, as a whole, favours compounds with a hit. Of some 83,000 tested, about 20% had one in any assay.
Simple rule here: growth less than 70% is yes (1), otherwise no (0).

Q: Does this molecule meet the criterion growth < 70%? COc1c(B(O)O)cccc1-c1nc2c(F)cc3[nH]ncc3c2c2c1CCCC2
A: yes (1)

Q: Please state whether growth is below 70% for COc1ccc(/C=C/C(=O)c2cccc(OCCCCOc3cccc(C(=O)/C=C/c4ccc(OC)c(OC)c4)c3)c2)cc1OC
A: yes (1)

Q: Say whether its growth is strictly beneath 70%. Entry: N#Cc1nc(-c2ccc(F)cc2)oc1S(=O)(=O)N1CCOCC1
A: no (0)

Q: # TODO verify growth < 70% strictly for this molecule: CCCCCCCCCCC(CN(CC)CC)C(O)c1ccccc1 (stereo not given)
A: yes (1)

Q: Please check: growth for Cc1nc2sc(C(=O)Nc3cccc(Br)c3)c(N)c2cc1C(O)c1ccccc1 (stereo not given) , strictly under 70% or not?
A: yes (1)

###

Test system: KM12 colon
experiment: NCI-60 one-dose screen, 48 h (100 = growth as untreated, 0 = no growth, -100 = all killed)
condition.label: 10 µM unless noted
The panel holds about 83,000 compounds, 20% with a hit somewhere; the sample as a whole holds those more often.
Each record is given Y if its reported growth is strictly below 80%. Records at or above 80% are given N.

Worked examples follow.
Q: Does this molecule meet the criterion growth < 80%? CCOC(=O)c1cc(C)n(-c2ccc(C(=O)O)cc2)c1C
A: N

Q: Does the reported growth of Cc1ccc(Nn2c(SCC(=O)Nc3nc(-c4ccccc4)cs3)nc(C)c2C)cc1 stay below 80%?
A: N

Others:
Q: # strict comparison: is reported growth < 80%? input = Oc1c(I)cc(I)cc1CNCc1ccccn1
A: Y

Q: Is the reported growth for COc1ccc(-c2cc(-c3cccnc3)nc3sc4c(=O)[nH]c(-c5ccc(Cl)cc5)nc4c23)cc1OC strictly below 80%?
A: N

Q: Is 80% strictly greater than the molecule's reported growth? molecule: O=C1/C(=C/c2ccccc2Br)COc2ccc(O)cc21
A: Y

Q: Does the reported growth of CCOC(=O)c1ccc(NC(=O)c2nc(-c3cc(OC)c(OC)c(OC)c3)n(-c3ccc(Cl)cc3)n2)cc1 stay below 80%?
A: N

Q: Please determine if C=C(C)[C@@H]1CC[C@]2(C(=O)O)CC[C@]3(C)[C@H](CC[C@@H]4[C@@]5(C)CCC(NC(=O)c6cccc(OC(C)=O)c6OC(C)=O)C(C)(C)[C@@H]5CC[C@]43C)[C@@H]12 (some centres undefined) is below 80% in terms of growth.
A: Y

Q: For Cn1c(=O)cc2c3c(c(NCCCO)ccc31)C(=O)c1ccccc1-2 , is the recorded growth below the cut-off of 80%?
A: Y

Q: Is growth strictly under 80% for the entry c1ccc(Cn2cc3c(c2)-c2oncc2CC3)cc1 ?
A: Y
